Hello, the source for this data is paper PMC12298883, in case you need it.

assay explanation: Cytotoxicity assay for C6 cells (CellTiter-Blue)
Format: cell-based
applied conditions: rat, C6 glial cells, viability, mean ± SD
Quick list: CC50 per entry.
API: value field is a number in µM; no unit string.

Recorded results for 8 compounds are shown here.
{"record smiles": "CCCCCCCCCCCCCO[C@@H]1CCC[C@H]1COP(=O)([O-])OCC[N+](C)(C)C", "assay result": 317}
{"record smiles": "CCCCCCCCCCCCCCCCCCOC[C@@H]1CCC[C@H]1OP(=O)([O-])OCC[N+](C)(C)C", "assay result": 58.5}
{"record smiles": "CCCCCCCCCCCCCCCCOP(=O)([O-])OCC[N+](C)(C)C", "assay result": 158}
{"record smiles": "CCCCCCCCCCCCCCCCCCCCCCOC[C@@H]1CCC[C@H]1OP(=O)([O-])OCC[N+](C)(C)C", "assay result": 84.9}
{"record smiles": "CCCCCCCCCCCCCCCCCCCCO[C@H]1CCC[C@H]1COP(=O)([O-])OCC[N+](C)(C)C", "assay result": 69.5}
{"record smiles": "CCCCCCCCCCCCCO[C@H]1CCC[C@H]1COP(=O)([O-])OCC[N+](C)(C)C", "assay result": 105}
{"record smiles": "CCCCCCCCCCCCCCCCCCCCCCO[C@@H]1CCC[C@H]1COP(=O)([O-])OCC[N+](C)(C)C", "assay result": 71}
{"record smiles": "CCCCCCCCCCCCCCCCCCCCCCO[C@H]1CCC[C@H]1COP(=O)([O-])OCC[N+](C)(C)C", "assay result": 114}

Exam item: Can you look up the measured CC50 of `CCCCCCCCCCCCCCCCCCO[C@@H]1CCC[C@H]1COP(=O)([O-])OCC[N+](C)(C)C` for me?
Marked response: 69.7

Exam item: Can you look up the measured CC50 of `CCCCCCCCCCCCCCCCCCCCO[C@@H]1CCC[C@H]1COP(=O)([O-])OCC[N+](C)(C)C` for me?
Marked response: 43

Exam item: Can you look up the measured CC50 of `CCCCCCCCCCCCCOC[C@@H]1CCC[C@H]1OP(=O)([O-])OCC[N+](C)(C)C` for me?
Marked response: 160

Exam item: Can you look up the measured CC50 of `CCCCCCCCCCCCCCCCCCO[C@H]1CCC[C@H]1COP(=O)([O-])OCC[N+](C)(C)C` for me?
Marked response: 158

---

System: C6 glial cells
assay explanation: Cytotoxicity assay for C6 cells (CellTiter-Blue)
Format: cell-based
applied conditions: C6 rat glial cells, viability; mean ± SD
readout label: CC50 (µM)
API: value field is a number in µM; no unit string.

Exam item: Entry `CCCCCCCCCCCCCCCCOP(=O)([O-])OCC[N+](C)(C)C` , system C6 glial cells: what CC50 was measured?
Marked response: 159

---

System: N. fowleri trophozoites
assay explanation: Anti-amoebic viability assay (CellTiter-Blue) with microscopic observation
Type: cell-based, Naegleria fowleri
applied conditions: N. fowleri trophozoites, 48 h, viability; mean ± SD of three assays; read-out: IC50 of Inhibition of N. fowleri
readout label: IC50 (µM)
API: value field is a number in µM; no unit string.

Exam item: Can you look up the measured IC50 of CCCCCCCCCCCCCCCCOP(=O)([O-])OCC[N+](C)(C)C [Miltefosine] for me?
Marked response: 147
